Data provenance: PubChem BioAssay (NCI)

Could you please report measured TGI for the items listed next?
Test system: TK-10 renal
Assay: NCI tumour cell line growth inhibition, 48 h

* CC(C)SC1SCC2C(=O)N(C)C3(CC3C)C(=O)OCC(NC(=O)c3nc4ccccc4cc3O)C(=O)NC(C)C(=O)N(C)C1C(=O)N(C)C1(CC1C)C(=O)OCC(NC(=O)c1nc3ccccc3cc1O)C(=O)NC(C)C(=O)N2C (stereo unspecified) | < 0.0001 µM
* O=NN(CCCl)C(=O)NCc1ccc[n+]([O-])c1 | > 100 µM
* O=C(c1c(F)c(F)c(F)c(F)c1F)n1c(=O)[nH]c2ccccc21 | 18.5 µM

Report TGI for every entry below.
1. O=C1c2[nH]cc(CN[C@@H]3CCCN3)c2C(=O)c2c1c(O)c1ccccc1c2O
2. COc1ccccc1-c1n[nH]c(-c2ccccc2O)n1
3. O=S(=O)(O)c1cccc2ccc(O)c(N=Nc3ccc(S(=O)(=O)c4ccc(N=Nc5c(O)ccc6cccc(S(=O)(=O)O)c56)cc4)cc3)c12
4. O=C(c1ccccc1)c1ccc2cccc(O)c2n1
5. Clc1ccccc1-c1nn2c(CCCCCCCCc3nnc4sc(-c5ccccc5Cl)nn34)nnc2s1
6. CCCCCCCCCCCCOCCCCCCCCC/C=C/c1ccc2c(c1)OCCOCCOCCOCCO2
7. Cc1cc(N(CCC#N)CCC#N)ccc1N=Nc1ccccc1[N+](=O)[O-]

result:
["2.29 µM", "> 100 µM", "> 100 µM", "> 100 µM", "> 100 µM", "41.5 µM", "> 100 µM"]

Report TGI for every entry below.
1. Cc1c(C(=O)N/N=C/c2ccc(O)cc2)nnn1-c1ccnc2c(C(F)(F)F)cccc12
2. Cc1ccc(C)c(-n2c(-c3ccc(Br)cc3)csc2=NC(=O)c2ccccc2F)c1

result:
["> 100 µM", "> 100 µM"]

Report TGI for every entry below.
1. COc1ccc(C(=O)c2cc(OC)c(OC)c(OC)c2)cc1/C=C/C(=O)c1ccc(O)cc1
2. COc1ccc(/C=C/C(=N/NC(=O)N/N=C(/C=C/c2ccc(OC)cc2)C(C)C)C(C)C)cc1
3. CNc1nc2c(C)ccc3nc(N(C)C)nc-3c2n1C

result:
1. 28.5 µM
2. > 100 µM
3. > 10 µM

Report TGI for every entry below.
1. CS(=O)(=O)c1ccc(Oc2nccc(-c3c(-c4ccc(F)cc4)ncn3C3CCNCC3)n2)cc1
2. CCOC(=O)c1csc(NC(=O)CN2CCCCC2)n1
3. CN(C)CCCNC(=O)c1cc(NC(=O)c2cc(NC(=O)CCCN3c4ccccc4C=Cc4ccccc43)cn2C)cn1C
4. COc1cc2c(cc1C)NC(=O)/C2=C\c1cccnc1
5. C=C1C(=O)OC2C1C(OC(=O)/C(C)=C/C)CC(O)(CCl)C1C(OC(C)=O)C=C(C)C21O (stereo unspecified)

result:
1: > 25 µM; 2: > 100 µM; 3: 13.9 µM; 4: 31.7 µM; 5: 27.3 µM

Measured TGI for this entry N#Cc1cccc(Nc2ccccc2SSc2ccccc2Nc2cccc(C#N)c2)c1 on TK-10 renal: > 21.5 µM

* * *

Tested on: SK-OV-3 ovarian
Experiment: NCI tumour cell line growth inhibition, 48 h
parameter: TGI

• COc1ccc(/C=C/C(=N/NC(=O)N/N=C(/C=C/c2ccc(OC)cc2)C(C)C)C(C)C)cc1 = > 100 µM

Report TGI for every entry below.
1. O=C1CCCSCCCC(=O)CCCSCCC1
2. COc1ccc(/C=C/C(=O)/C=C(/C=C/c2ccc(OC)c(OC)c2)OB(F)F)cc1OC
3. COC1=C(OC)C(=O)c2cc(SC)c(=O)c(SC)cc2C1=O
4. CCOC(=O)NC(OCCN(C)C)(C(F)(F)F)C(F)(F)F
5. Nc1ccc2c(c1)N(C(=O)CCCC(=O)N1CC(CCl)c3ccc(N)cc31)CC2CCl (stereo unspecified)

result:
> 100 µM
12.1 µM
> 100 µM
> 100 µM
48.6 µM

* * *

Tested on: SK-OV-3 ovarian
Assay: NCI tumour cell line growth inhibition, 48 h
Please note: T applies when TGI is 30 µM or greater, and F applies otherwise.

* CC[C@@]1(O)C(=O)OCc2c1cc1n(c2=O)Cc2c-1nc1ccccc1c2C=Nc1ccc(N[C@@H]2c3cc4c(cc3[C@@H](c3cc(OC)c(O)c(OC)c3)[C@H]3C(=O)OC[C@@H]32)OCO4)cc1 | F

query: hey, is TGI for this one >= 30 µM? Cc1c2ncccc2c(C)c2c1[nH]c1ccc(O)cc12
result: F

query: hey, is TGI for this one >= 30 µM? COC1CCC2C(=O)CCCC2O1 (stereo unspecified)
result: T

query: hey, is TGI for this one >= 30 µM? Brc1nc2c3ccccc3ncn2c1Br
result: T

query: hey, is TGI for this one >= 30 µM? O=C(Nc1ccccc1)O/N=C1/CCCC/C1=C\c1ccccc1
result: T

query: hey, is TGI for this one >= 30 µM? O=C(O)CSCC(=O)c1ccccc1
result: T

query: hey, is TGI for this one >= 30 µM? COc1ccc(C(=O)c2cc(OC)c(OC)c(OC)c2)cc1/C=C/C(=O)c1ccc(O)cc1
result: T

query: hey, is TGI for this one >= 30 µM? O=C(O)C1CCCN1Cc1c[nH]c2ccccc12 (stereo unspecified)
result: T

query: hey, is TGI for this one >= 30 µM? N#CC12CCC(O)C(CC1)C2=O (stereo unspecified)
result: T

* * *

System: SF-539 CNS
Assay: NCI tumour cell line growth inhibition, 48 h
parameter: log10(TGI) (log10 of the value in µM)
Please be aware that the numbers have been log10-transformed from TGI in µM.

- COc1ccc(/C=C/C(=O)c2cccc(C(=O)/C=C/c3ccc(OC)c(OC)c3)n2)cc1OC: 1.58
- N#CCN(Cc1ccccc1)[C@H]1CCC[C@]1(O)/C=C/c1ccc2c(c1)OCO2: 1.95
- COc1cc(-c2cc(C(=O)Nc3nc4ccccc4s3)nc3cc(-c4ccccc4)nn23)cc(OC)c1OC: 0.96

Report log10(TGI) for every entry below.
1. O=C(CCl)Nc1ccccc1SCc1cc(Cl)cc2c1OCOC2
2. CC[C@@]1(O)C(=O)OCc2c1cc1n(c2=O)Cc2c-1nc1ccccc1c2C=Nc1ccc(N[C@@H]2c3cc4c(cc3[C@@H](c3cc(OC)c(O)c(OC)c3)[C@H]3C(=O)OC[C@@H]32)OCO4)cc1
3. O=C(Nc1ncc([N+](=O)[O-])s1)c1cccc([N+](=O)[O-])c1
4. CCN(CC)c1ccc2[nH]c3c(C(N)=O)cc(=O)c(=O)c=3oc2c1

result:
1. 1.46
2. -0.88
3. 1.57
4. 1.15

* * *

Tested on: KM12 colon
Assay: NCI tumour cell line growth inhibition, 48 h
parameter: TGI (µM)
One number for each entry, in µM.

- N#CCN(Cc1ccccc1)[C@H]1CCC[C@]1(O)/C=C/c1ccc2c(c1)OCO2: 45.3
- Cn1cc(-c2nc(-c3c[nH]c4ncccc34)cs2)c2cc(Cl)ccc21: 7.47
- O=C(Nc1ncc([N+](=O)[O-])s1)c1cccc([N+](=O)[O-])c1: 65.6

For this compound ( CC1=C(C(=O)Nc2ccc(F)c(Cl)c2)C(c2cccc(O)c2)NC(=S)N1 (stereo unspecified) ), measured TGI is 35.8

* * *

Tested on: SW-620 colon
Experiment: NCI tumour cell line growth inhibition, 48 h; in the data active means GI50 below about 0.43 µM; inactive means the rest
Please reply with one of these outcomes: 1 = active, -1 = inactive

These solved cases illustrate the format of a correct answer.
• CS(=O)(=O)c1ccc(Oc2nccc(-c3c(-c4ccc(F)cc4)ncn3C3CCNCC3)n2)cc1 = -1
• COC(=O)C1C(O)C(C)C(O)C(C)/C=C\C=C(C)C(=O)Nc2c(C)c(OC(C)=O)c3c(c2O)C(=O)C(C)=C2OCOC(=C23)C(C)=CC(C)(O)C(O)C(C)C1O (stereo not given) = -1
• CCN(Cc1ccc(F)cc1F)c1ccc(CO)c(Cl)c1 = -1
• COc1ccc(/C=C\c2cc(OC)c(OC)c(OC)c2)cc1NC(=O)[C@@H](N)CO = 1
• COC(=O)c1ccc(-c2nc3cc(F)c(F)cc3nc2C#N)cc1 = -1

query: Please indicate how the test categorized COc1ccc2c(CN3CCC(CO)CC3)cc3cc4c(cc3c2c1)OCO4 .
result: 1

query: Please indicate how the test categorized CCN(CC)c1ccc2[nH]c3c(C(N)=O)cc(=O)c(=O)c=3oc2c1 .
result: -1

query: Please indicate how the test categorized COc1ccc(/C=C(\C#N)n2nnc3cc(Cl)ccc32)cc1 .
result: 1

query: Please indicate how the test categorized O=C(CSc1nc2ccc([N+](=O)[O-])cc2[nH]1)Nc1cccc(C(F)(F)F)c1 .
result: -1

query: Please indicate how the test categorized O=C(Nc1ncc([N+](=O)[O-])s1)c1cccc([N+](=O)[O-])c1 .
result: -1

query: Please indicate how the test categorized COc1cccc(-c2nc(-c3ccc(NS(=O)(=O)c4ccccc4)cc3)[nH]c2-c2ccnc(Br)c2)c1 .
result: -1

query: Please indicate how the test categorized c1ccc(Oc2c3ccccc3nc3ccccc23)cc1 .
result: -1
